This collection of values is drawn from ChEMBL document CHEMBL5724796.

# TEST_SYSTEM: Glycogen synthase kinase-3 beta (Homo sapiens)
# COND: Compound concentration 20.0 uM
# Description: Thermal Shift Assay. Domain: start/stop: M26-R383
This section presents compounds with their documented ΔTm values.
MEASUREMENT_NAME: ΔTm (°C)

1) COc1ccc(-n2c(SCCCN3C(=O)c4cccc5cccc(c45)C3=O)nnc2-c2ccncc2)cc1	-0.45
2) FC(F)(F)Cn1cc(-c2ccncc2)c(-c2ccc(OCc3ccc4ccccc4n3)cc2)n1	-1.19
3) CC(=O)N1CCC(Nc2cc(C(=O)NC[C@H](O)CN3CCc4ccccc4C3)ncn2)CC1	0.18
4) Cc1cc(N2C[C@@H](C)N[C@@H](C)C2)ncc1-c1ccc(-c2nc3c(ccn3C)c(=O)[nH]2)cc1	0.66
5) CC(C)c1cnc(CSc2cnc(NC(=O)C3CCNCC3)s2)o1	7.03
6) CC(C)NC(=O)c1ccc(OC(F)F)c(OCC2CC2)c1	-0.46
7) CN1CCN(c2nc(-c3ccc(C(=O)NC4(C(=O)NCC#N)CCCCC4)cc3)cs2)CC1	-0.33
8) C=C(C)[C@@H](CC=C(C)C)C[C@@]12C[C@@H](CC=C(C)C)C(C)(C)[C@@](CC=C(C)C)(C(=O)C(C(=O)c3ccc(O)c(O)c3)=C1O)C2=O	-0.68

---

# TEST_SYSTEM: Aurora kinase A (Homo sapiens)
# COND: Compound concentration 20.0 uM
# Description: Thermal Shift Assay. Domain: start/stop: E122-S403
MEASUREMENT_NAME: ΔTm (°C)

1) OC[C@H]1O[C@@H](c2ccc(Cl)c(Cc3ccc(OCCOC4CC4)cc3)c2)[C@H](O)[C@@H](O)[C@@H]1O	-2.84
2) COc1cc2c(NC3CCN(C)CC3)cc(-c3ccc(C)o3)nc2cc1OCCCN1CCCC1	0.09
3) C[C@H](NC(=O)c1cn(C2(C#N)CC2)cn1)C(=O)Nc1nc(-c2cccc(-c3ccn(C)n3)c2)cs1	1.33
4) COc1cc(O)cc(CN2CCc3c(cc(Cn4ccn(C)c4=N)cc3-c3ccc(F)cc3C)C2=O)c1	-2.93
5) Nc1nc(C(F)(F)F)nc2c1nnn2C[C@H]1CN(Cc2nccs2)CCO1	-1.21
6) Cc1nn2c(nc(O)c3cccnc32)c1C#N	-2.1
7) CC(=O)N[C@@H](CCCCNC(=O)CSCCNC(=O)CCNC(=O)[C@H](O)C(C)(C)COP(=O)(O)OP(=O)(O)OC[C@H]1O[C@@H](n2cnc3c(N)ncnc32)[C@H](O)[C@@H]1OP(=O)(O)O)C(N)=O	-0.37
8) COc1cc(C(=O)NCC2(N(C)C)CCCC2)cc(OC)c1OCc1ccccc1	-0.99
9) COc1ncc(C)c(-c2ccc3c(c2)[nH]c(=O)c2cnn([C@H]4CCOC4)c23)c1C	-2.59
10) COc1cc(-c2cn(C)c(=O)c3cnccc23)cc(OC)c1CN(C)C	-1.01
11) O=C(O)CCNC(=S)NCCCC[C@H](NS(=O)(=O)c1cccc(F)c1)C(=O)N[C@@H](Cc1c[nH]c2ccccc12)C(=O)NC1CCC1	-2.13
12) CS(=O)(=O)N1CCN(C(=O)c2cnc3ccc(F)cc3c2-c2ccc(C3(C#N)CC3)cc2)CC1	-1.44
13) CC/C(=C(/CC)c1ccc(O)cc1)c1ccc(O)cc1	-1.78
14) Cc1ccc(C(=O)Nc2ccc(S(=O)(=O)O)c3cc(S(=O)(=O)O)cc(S(=O)(=O)O)c23)cc1NC(=O)c1cccc(NC(=O)Nc2cccc(C(=O)Nc3cc(C(=O)Nc4ccc(S(=O)(=O)O)c5cc(S(=O)(=O)O)cc(S(=O)(=O)O)c45)ccc3C)c2)c1	0
